- test.protocol: Precipitation in rNMT1 buffer, absorbance at 750 nm
- Type: physicochemical
- run.conditions: 15 min at room temperature
# key: entry, value: concentration at which the compound precipitated (absorbance at 750 nm)
measured.endpoint: concentration at which the compound precipitated (absorbance at 750 nm)

compound	val
CCCCCCCCCCCCCC(=O)N[C@H](CO)[C@H](O)c1ccc([N+](=O)[O-])cc1	300 µM
O=C(/C=C/c1ccccc1)/C=C/c1ccccc1.O=C(/C=C/c1ccccc1)/C=C/c1ccccc1.O=C(/C=C/c1ccccc1)/C=C/c1ccccc1.[Pd].[Pd]	10 µM
CCCCCCCCCCCCC(O)C(=O)O (stereo not shown) [Compound 3, 2-hydroxymyristic acid]	300 µM

---

- experimental.target: recombinant human N-myristoyltransferase 1 (rNMT1) (Homo sapiens)
- Construct: Full-length HsNMT1 enzyme was produced as previously described; made in house
- Sequence (P30419 whole entry): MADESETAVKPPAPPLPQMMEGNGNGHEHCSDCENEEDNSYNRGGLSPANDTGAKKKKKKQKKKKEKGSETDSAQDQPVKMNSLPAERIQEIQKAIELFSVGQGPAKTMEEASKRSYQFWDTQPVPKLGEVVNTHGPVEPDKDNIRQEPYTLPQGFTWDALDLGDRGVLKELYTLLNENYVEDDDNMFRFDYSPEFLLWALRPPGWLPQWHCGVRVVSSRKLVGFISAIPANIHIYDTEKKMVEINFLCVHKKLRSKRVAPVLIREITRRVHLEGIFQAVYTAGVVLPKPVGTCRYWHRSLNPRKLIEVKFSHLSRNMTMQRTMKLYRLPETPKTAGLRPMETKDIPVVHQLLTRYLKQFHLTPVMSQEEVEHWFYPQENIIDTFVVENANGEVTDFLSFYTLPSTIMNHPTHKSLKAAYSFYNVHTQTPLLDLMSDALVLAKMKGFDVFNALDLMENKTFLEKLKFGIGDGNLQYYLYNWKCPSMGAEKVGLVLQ
- test.protocol: Enzymatic HsNMT1 assay (CPM detection of CoA thiol by-product)
- Format: biochemical
pIC50: −log10 of the molar value.
measured.endpoint: pIC50

1. Cc1nn(C)c(C)c1CCOc1c(-c2ccc3c(c2)c(CN(C)C)nn3C)ccc(F)c1F 9.62

Data provenance: paper PMC6593224
